Entries annotated with measured activity coefficient
Assay: activity coefficient (dimensionless); of the first substance listed, at infinite dilution; xn = mol fraction of the nth substance listed
Details: 333.15 K; Liquid; Chromatography; x1 = 0

[
  {
    "COMPOUND": "Cc1ccccc1C [1,2-dimethylbenzene] + N#C[N-]C#N.N#C[N-]C#N.c1ccc(Cn2cc[n+](COCCCOC[n+]3ccn(Cc4ccccc4)c3)c2)cc1",
    "activity coefficient": 6.87
  },
  {
    "COMPOUND": "CCC(C)=O [butanone] + Cn1cc[n+](COCCCOC[n+]2ccn(C)c2)c1.N#C[N-]C#N.N#C[N-]C#N",
    "activity coefficient": 1.56
  },
  {
    "COMPOUND": "ClC(Cl)(Cl)Cl [tetrachloromethane] + CCCCCCCCn1cc[n+](COCCC)c1C.O=S(=O)([N-]S(=O)(=O)C(F)(F)F)C(F)(F)F",
    "activity coefficient": 1.19
  },
  {
    "COMPOUND": "CCC(=O)CC [pentan-3-one] + CCCOC[n+]1ccn(C)c1.F[B-](F)(F)F",
    "activity coefficient": 3.36
  },
  {
    "COMPOUND": "C1CCCCCC1 [cycloheptane] + CCCCCCCCn1cc[n+](COCCCOC[n+]2ccn(CCCCCCCC)c2C)c1C.O=S(=O)([N-]S(=O)(=O)C(F)(F)F)C(F)(F)F.O=S(=O)([N-]S(=O)(=O)C(F)(F)F)C(F)(F)F",
    "activity coefficient": 7.77
  },
  {
    "COMPOUND": "CC#N [acetonitrile] + CCCCCCCCn1cc[n+](COCCC)c1C.N#C[N-]C#N",
    "activity coefficient": 0.7
  },
  {
    "COMPOUND": "c1ccsc1 [thiophene] + CCCCCCCCn1cc[n+](COCCC)c1C.N#C[N-]C#N",
    "activity coefficient": 0.66
  }
]
